Where these numbers come from: patent US11413278B2

Test system: WI-38 cells
Details: WI-38 cells, no H2O2 stress, 10 uM, normalized ATP measurement
Please enter TRUE where No H2O2 stress treatment, at 10 uM (fold change) is greater than or equal to 0.7 fold change, and FALSE where it is lower.

SMILES REPR	ASSIGNED CLASS
Nc1ccccc1S(=O)(=O)Nc1cccc2cccnc12	TRUE
COc1cc2c(no[n+]2[O-])n2nnnc12	TRUE
O=C(/C=C/c1cn(-c2ccccc2)nc1-c1cccnc1)c1ccccc1	TRUE
Cc1ccc(NC(=O)c2ccc([N+](=O)[O-])o2)cc1C	FALSE

====

Tested on: FOXO3
Experiment: qPCR analysis of FOXO3-regulated genes
Type: cell-based, human
Conditions: Homo sapiens; WI-38 cells, 10 μM, 24 hrs, n=4, qPCR normalized by B2M; read-out: DDB1 Normalized fold change
Each item that follows carries a reported fold induction at 10 µM.

SMILES REPR	fold induction at 10 µM
CCc1ccc(Oc2nc3ccccn3c(=O)c2/C=C(\C#N)C(=O)NCc2ccco2)cc1	1.25
CCc1ccc(Oc2nc3ccccn3c(=O)c2/C=C(\C#N)C(=O)NC2CCCCC2)cc1	1.2
O=C(NCc1cccnc1)/C(=C/c1ccc(-c2ccc(Cl)cc2)o1)S(=O)(=O)c1ccccc1	1.36
O=C(/C(=C/c1ccc(Cl)cc1)c1nc2ccccc2[nH]1)c1ccccc1	1.41
[O-][n+]1onc2c3nsnc3c(Br)cc21	1.04
